- target desc: Acetylcholinesterase (Homo sapiens, UniProt P22303)
- Sequence (P22303 whole entry): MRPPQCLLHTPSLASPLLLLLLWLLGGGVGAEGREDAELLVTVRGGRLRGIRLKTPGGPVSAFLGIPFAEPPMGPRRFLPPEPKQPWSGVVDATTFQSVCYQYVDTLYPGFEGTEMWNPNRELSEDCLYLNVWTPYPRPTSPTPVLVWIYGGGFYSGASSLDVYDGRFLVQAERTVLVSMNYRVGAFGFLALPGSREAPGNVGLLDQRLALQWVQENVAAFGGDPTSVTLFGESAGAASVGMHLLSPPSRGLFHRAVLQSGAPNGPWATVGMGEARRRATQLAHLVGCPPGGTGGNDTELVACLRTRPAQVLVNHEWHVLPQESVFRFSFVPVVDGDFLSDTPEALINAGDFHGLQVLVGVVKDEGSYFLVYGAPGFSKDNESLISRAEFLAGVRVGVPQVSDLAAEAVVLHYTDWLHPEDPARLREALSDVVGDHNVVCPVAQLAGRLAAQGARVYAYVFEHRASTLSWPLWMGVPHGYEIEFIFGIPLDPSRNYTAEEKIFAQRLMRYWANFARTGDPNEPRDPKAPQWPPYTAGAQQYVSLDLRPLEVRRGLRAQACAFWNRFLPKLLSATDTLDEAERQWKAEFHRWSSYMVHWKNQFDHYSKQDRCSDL

[
  {
    "molecule smiles": "Nc1oc2ccccc2c(=O)c1/C=C1\\COc2ccccc2C1=O",
    "IC50, µM": 0.27
  }
]
